Measurement Description: MTT cell viability assay in Vero E6 cells
Type: cell-based
Condition Label: African green monkey
Metric: CC50 at 72 h

NC(=O)c1c(NC(=O)c2cnn3c(C(F)(F)F)cc(-c4ccccc4)nc23)sc2c1CCCC2 = > 250 µM
COc1ccc(C(=O)COC(=O)C(Cc2ccccc2)N2C(=O)C3C4C=CC(C4)C3C2=O)cc1 (stereo not shown) = > 500 µM
CCNC(=O)[C@@H](NC(=O)c1ccccc1NC(=O)c1ccc(OC)cc1)C(C)C = > 250 µM
O=C(NC(Cc1ccccc1)C(=O)NCc1ccccn1)OCc1ccccc1 (stereo not shown) = 428 µM
Cc1ccc(-c2cc(C(F)(F)F)n3ncc(C(=O)Nc4sc5c(c4C(N)=O)CCCC5)c3n2)cc1 = 67.9 µM

Task item: // CC50 at 72 h lookup, key: O=C(Nc1ccc2c(c1)OCO2)c1nnc(C(=O)N2CCCC(C(=O)NCc3ccccc3)C2)s1 (stereo not shown)
Reply: 207 µM

* * *

Dear all, this message contains IC50 results, target or system SARS-CoV-2 M^pro (Severe acute respiratory syndrome coronavirus 2, UniProt P0DTD1).
Write the number in µM without appending the unit.

// below: answered molecules
NC(=O)c1c(NC(=O)c2cnn3c(C(F)(F)F)cc(-c4ccccc4)nc23)sc2c1CCCC2 = 26.6
O=C(CCC(=O)NNC(=O)C(c1ccccc1)c1ccccc1)NCc1ccccc1 = 128
CCOc1ccc(NC(=O)C(=O)NCCc2csc3nc(-c4cccs4)nn23)cc1 = 142
COc1ccc(C(=O)Nc2ccccc2C(=O)NC(C(=O)Nc2ccccc2)C(C)C)cc1 (stereo not shown) = 111
COc1ccc(C(=O)Nc2ccccc2C(=O)N[C@H](C(=O)NC2CCCCC2)C(C)C)cc1 = 26.7

Turning now to a further record.
Task item: Which measured IC50 belongs to CC(C)[C@H](NC(=O)c1ccccc1NC(=O)c1ccccn1)C(=O)N[C@H](CO)C(C)C , tested on SARS-CoV-2 M^pro (Severe acute respiratory syndrome coronavirus 2, UniProt P0DTD1)?
Reply: 41.3

* * *

Listing of entries alongside the reported pIC50.
System Tested: SARS-CoV-2 M^pro (Severe acute respiratory syndrome coronavirus 2, UniProt P0DTD1)
pIC50 here is simply -log10 of the concentration when that concentration is written in mol/L.

// below: answered compounds
Cc1ccc(-c2cc(C(F)(F)F)n3ncc(C(=O)Nc4sc5c(c4C(N)=O)CCCC5)c3n2)cc1 = 4.34
COc1ccc(C(=O)Nc2ccccc2C(=O)N[C@H](C(=O)Nc2ccccc2)C(C)C)cc1 = 4.36

Turning now to a further record.
Task item: // pIC50 lookup, key: CC(C)[C@H](NC(=O)c1ccccc1NC(=O)c1ccc(O)cc1)C(=O)N[C@H](CO)C(C)C
Reply: 4.72

* * *

Measurement Description: MTT cell viability assay in Vero E6 cells
Format: cell-based
Condition Label: African green monkey
Metric: CC50 at 72 h

// below: answered molecules
O=C(Nc1ccccc1C(=O)NCc1ccccc1)c1cc(S(=O)(=O)N2CCOCC2)ccc1F = > 500 µM
COc1ccc2c(c1)c(CC(=O)O)c(C)n2C(=O)c1ccc(Cl)cc1 = > 500 µM

Task item: // CC50 at 72 h lookup, key: COc1ccc(-c2ocnc2C(=O)NCCCn2cncn2)cc1Cl
Reply: > 500 µM

Task item: // repeat for CCOC(=O)C1=C(CN2CCCN(C(=O)OC(C)(C)C)CC2)NC(=O)NC1c1ccc(C)cc1 (stereo not shown) and report
Reply: 113 µM

Task item: // repeat for CC(C)(C)NC(=O)N[C@H](C(=O)N1C[C@H]2[C@@H]([C@H]1C(=O)NC(CC1CCC1)C(=O)C(N)=O)C2(C)C)C(C)(C)C (stereo partly shown) [BOC, Boceprevir, reference compound] and report
Reply: > 500 µM

* * *

Dear all, this message contains pIC50 results, target or system UniProtKB P0DTD1.
pIC50 here is simply -log10 of the concentration when that concentration is written in mol/L.

// below: answered compounds
COc1ccc(-c2cc(C(F)(F)F)n3ncc(C(=O)Nc4sc5c(c4C(N)=O)CCCC5)c3n2)cc1 = 4.24
O=C(Nc1ccc2c(c1)OCO2)c1nnc(C(=O)N2CCCC(C(=O)NCc3ccccc3)C2)s1 (stereo not shown) = 4.54

Turning now to a further record.
Task item: Which measured pIC50 belongs to CC(C)[C@H](NC(=O)c1ccccc1NC(=O)c1ccccc1)C(=O)N[C@H](CO)C(C)C , tested on UniProtKB P0DTD1?
Reply: 4.37

* * *

Measurement Description: MTT cell viability assay in Vero E6 cells
Type: cell-based
Condition Label: African green monkey
Metric: CC50 at 72 h

Task item: // CC50 at 72 h lookup, key: CCOc1ccccc1NC(=O)C(=O)NCC(c1cccnc1)N1CCN(c2ccccc2)CC1 (centres unmarked)
Reply: > 500 µM

Task item: // repeat for CCOc1ccc(NC(=O)C(=O)NCCc2csc3nc(-c4cccs4)nn23)cc1 and report
Reply: > 500 µM

Task item: // repeat for COC(=O)C1=C(CN2CCN(C(=O)OC(C)(C)C)CC2)NC(=O)NC1c1ccccc1 (centres unmarked) and report
Reply: 401 µM

Task item: // repeat for CCC(C)NC(=O)c1ccccc1NC(=O)c1ccc(C)c(S(=O)(=O)Nc2cccc(NC(=O)c3ccccc3)c2)c1 (centres unmarked) and report
Reply: > 500 µM

Task item: // repeat for CCC(C)C(NC(=O)C1N2C(=O)c3ccccc3C2SC1(C)C)C(=O)NC(CO)C(C)C (centres unmarked) and report
Reply: > 500 µM

Task item: // repeat for CC(NC(=O)C(=O)NCCN1CCOCC1)C(c1cccs1)N1CCN(c2ccccc2)CC1 (centres unmarked) and report
Reply: > 500 µM

Task item: // repeat for CCN1CCN(C(C(=O)O)c2c[nH]c3ccc(NC(=O)CCC(=O)O)cc23)CC1 (centres unmarked) and report
Reply: > 500 µM

Task item: // repeat for CCOC(=O)C(NC(=O)COc1ccccc1)(Nc1nc2ccccc2s1)C(F)(F)F (centres unmarked) and report
Reply: 68.8 µM

Task item: // repeat for CC(C)[C@H](NC(=O)c1ccccc1NC(=O)c1ccccn1)C(=O)N[C@H](CO)C(C)C and report
Reply: > 250 µM

Task item: // repeat for Nc1ncnc2c1ncn2[C@@H]1O[C@H](CSCC[C@H](N)C(=O)O)[C@@H](O)[C@H]1O and report
Reply: > 500 µM

Task item: // repeat for COc1ccc(C(=O)Nc2ccccc2C(=O)NC(C(=O)Nc2ccccc2)C(C)C)cc1 (centres unmarked) and report
Reply: > 500 µM

Task item: // repeat for COc1ccc(-c2cc(C(F)(F)F)n3ncc(C(=O)Nc4sc5c(c4C(N)=O)CCCC5)c3n2)cc1 and report
Reply: 68.9 µM

Task item: // repeat for O=C(NCc1ccc(F)cc1)C(=O)NCC(c1cccnc1)N1CCN(c2ccccc2)CC1 (centres unmarked) and report
Reply: > 500 µM

Task item: // repeat for CCOC(=O)C1=C(CN2CCC(NC(=O)OC(C)(C)C)CC2)NC(=O)NC1c1ccccc1 (centres unmarked) and report
Reply: 228 µM

Task item: // repeat for CC(=O)NCC(=O)NC1(C(=O)NC(c2ccccc2)c2ccccc2)CCCCC1 and report
Reply: > 500 µM

Task item: // repeat for CCc1cc(Br)cc2c(C(=O)N3CCOCC3)cc(-c3ccc(OC)cc3)nc12 and report
Reply: 228 µM

Task item: // repeat for CCC(CC)COC(=O)[C@H](C)N[P@](=O)(OC[C@H]1O[C@@](C#N)(c2ccc3c(N)ncnn23)[C@H](O)[C@@H]1O)Oc1ccccc1 [RMV, remdesivir, reference compound] and report
Reply: > 250 µM

Task item: // repeat for COc1ccc(C(=O)Nc2ccccc2C(=O)N[C@H](C(=O)Nc2ccccc2)C(C)C)cc1 and report
Reply: > 250 µM

Task item: // repeat for CC(C)[C@H](NC(=O)c1ccccc1NC(=O)c1ccccc1)C(=O)N[C@H](CO)C(C)C and report
Reply: > 250 µM

Task item: // repeat for COc1ccc(C(=O)Nc2ccccc2C(=O)N[C@H](C(=O)N[C@H](CO)C(C)C)C(C)C)cc1 and report
Reply: > 250 µM
